Reference source: ChEMBL document CHEMBL5625167

experiment: Cytotoxicity against African green monkey Vero cells assessed as reduction in cell population incubated for 48 hrs by MTT assay; assay type: toxicity, cell-based; settings: chlorocebus sabaeus
The class of a record is decided solely by its measured CC50 at 48 h; consult class 1 = under 30 µM, class 2 = from 30 µM up to 90 µM, class 3 = 90 µM and over

Lab log: CCCCc1ccc(CCCCCCCCCC(N)CO)cc1 (configuration not stated) — assign CC50 at 48 h category
class 1

CCCCCCCCCCCCCCCC(CO)N(CC)CC (configuration not stated) ?
class 1

Record: CCCCCCCCCCCCCCCCCC(CO)NCC (configuration not stated)
class 1

Can you handle CCCCCCCCCCCCCCCCCC(COCc1ccccc1)NCCCCCC (configuration not stated) next?
class 3

// query: CCCCCCCCCCCCCCCC(CO)NCCCCCC (configuration not stated)
class 3

# iterate: CCCCc1ccc(CCCCCCCC(CO)NC(=O)OC(C)(C)C)cc1 (configuration not stated)
class 1

Entry to check: CCCCCCCCCCCCCCCCCCCC(N)COCc1ccccc1 (configuration not stated)
class 3

Next: CCCCCCCCCCCCCCCC(CO)N(CCCC)CCCC (configuration not stated)
class 2

Next compound: CCCCCCCCCCCCCCCCCCCC(CO)N(CC)CC (configuration not stated)
class 3

What do you have for CCCCCCCCCCCCCCCCCC(CO)N(CC)CC (configuration not stated) ?
class 2

Field entry: CCCCCCCCCCCCCCCC(N)COCc1cc(OC)c(OC)c(OC)c1 (configuration not stated)
class 1

Subsequent entry: CCCCCCCCCCCCCCCCCC(N)CO (configuration not stated)
class 2

Please give the result for CC[C@@H](CO)NCCN[C@@H](CC)CO too.
class 3

Note, next up: CCCCCCCCCCCC(CO)N(CC)CC (configuration not stated)
class 2

Then CCCCCCCCCCCCCCCCCCCC(COCc1ccccc1)NCC (configuration not stated) ?
class 2

Same again, this time with CCCCCCCCCCCC(CO)NCCCC (configuration not stated)
class 1

Try this compound next: CCCCc1ccc(CCCCCCCCCC(CO)NC(=O)OC(C)(C)C)cc1 (configuration not stated)
class 2
